- TEST_DESCRIPTION: CI channel CEREP ligand profiling
READOUT_KIND: pKi
// returns pKi (minus log10 of molar concentration), number only

input: Can you look up the measured pKi of "O=C(Nc1cccnn1)N1CCC(=Cc2cccc(Oc3ccc(C(F)(F)F)cn3)c2)CC1" for me?
output: 5.52

---

Sequence of the target: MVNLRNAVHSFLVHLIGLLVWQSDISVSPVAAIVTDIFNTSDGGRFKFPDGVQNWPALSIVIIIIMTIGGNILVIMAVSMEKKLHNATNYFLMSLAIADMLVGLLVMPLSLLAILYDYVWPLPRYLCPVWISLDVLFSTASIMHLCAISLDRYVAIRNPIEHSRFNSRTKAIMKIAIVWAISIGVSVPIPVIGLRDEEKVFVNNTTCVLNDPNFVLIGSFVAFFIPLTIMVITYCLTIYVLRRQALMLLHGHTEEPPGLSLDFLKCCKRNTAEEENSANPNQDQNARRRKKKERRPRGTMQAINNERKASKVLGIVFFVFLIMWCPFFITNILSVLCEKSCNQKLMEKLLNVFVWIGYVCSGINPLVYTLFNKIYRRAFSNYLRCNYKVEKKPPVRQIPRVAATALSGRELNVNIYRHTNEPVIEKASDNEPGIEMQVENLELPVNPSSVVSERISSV
READOUT_KIND: pKi
// returns pKi (minus log10 of molar concentration), number only

input: Can you look up the measured pKi of "O=C(Nc1cccnn1)N1CCC(=Cc2cccc(Oc3ccc(C(F)(F)F)cn3)c2)CC1" for me?
output: 5.78
